system: NB-4; experiment: Induction of cell differentiation in human NB4 cells assessed as induction of induction of cell surface marker CD14 expression at 1 nM after 48 hrs; type: functional, cell-based; settings: tested as the 2H-labelled form
The source made the active and inactive calls. The calls are words filed in the database; no cut-off is given here.
attribute_measured: Activity

structure_string=C=C1/C(=C\C=C2/CCC[C@]3(C)[C@@H]([C@@H](C/C=C\C(O)(C(F)(F)F)C(F)(F)F)CCCC(C)(C)O)CC[C@@H]23)C[C@@H](O)C[C@@H]1O system_name=NB-4 attribute_measured=Activity obs_value=Active
structure_string=C=C1/C(=C\C=C2/CCC[C@]3(C)[C@@H]([C@@H](C/C=C\C(O)(C(F)(F)F)C(F)(F)F)CCCC(C)(C)O)CC[C@@H]23)C[C@@H](O)C[C@@H]1F system_name=NB-4 attribute_measured=Activity obs_value=Active
structure_string=C=C1/C(=C\C=C2/CCC[C@]3(C)[C@@H]([C@H](CC#CC(O)(C(F)(F)F)C(F)(F)F)CCCC(C)(C)O)CC[C@@H]23)C[C@@H](O)C[C@@H]1O system_name=NB-4 attribute_measured=Activity obs_value=Active

###

system: NB-4; test: Induction of cell differentiation in human NB4 cells assessed as induction of induction of cell surface marker CD14 expression at 1 nM after 48 hrs; format: functional, cell-based; conditions: tested as the 2H-labelled form
Activity calls are given as the source filed them. The calls are words filed in the database; no cut-off is given here.
attribute_measured: Activity

structure_string=C=C1/C(=C\C=C2/CCC[C@]3(C)[C@@H]([C@H](CC#CC(O)(C(F)(F)F)C(F)(F)F)CCCC(C)(C)O)CC[C@@H]23)C[C@@H](O)C[C@@H]1F system_name=NB-4 attribute_measured=Activity obs_value=Active
structure_string=CC(C)(O)CCC[C@H](C/C=C\C(O)(C(F)(F)F)C(F)(F)F)[C@H]1CC[C@H]2/C(=C/C=C3C[C@@H](O)C[C@H](O)C3)CCC[C@]12C system_name=NB-4 attribute_measured=Activity obs_value=Active
structure_string=CC(C)(O)CCC[C@@H](C/C=C\C(O)(C(F)(F)F)C(F)(F)F)[C@H]1CC[C@H]2/C(=C/C=C3C[C@@H](O)C[C@H](O)C3)CCC[C@]12C system_name=NB-4 attribute_measured=Activity obs_value=Active

###

Overview of recorded IC50 for various molecules
experiment: Antiproliferative activity against human MCF10CA1a after 3 days by [3H]thymidine uptake assay; format: functional
Number in nM, nothing else.

structure_string=[2H]C([2H])([2H])C(O)(CCC[C@@H](CC#CC(O)(C(F)(F)F)C(F)(F)F)[C@H]1CC[C@H]2/C(=C/C=C3C[C@@H](O)C[C@H](O)C3)CCC[C@]12C)C([2H])([2H])[2H] unit_info=nM obs_value=0.12

Input line: Field request: IC50 | item: [2H]C([2H])([2H])C(O)(CCC[C@@H](C/C=C\C(O)(C(F)(F)F)C(F)(F)F)[C@H]1CC[C@H]2/C(=C/C=C3C[C@@H](O)C[C@H](O)C3)CCC[C@]12C)C([2H])([2H])[2H]
Output line: 3.2

Input line: Further, for [2H]C([2H])([2H])C(O)(CCC[C@H](CC#CC(O)(C(F)(F)F)C(F)(F)F)[C@H]1CC[C@H]2/C(=C/C=C3/C[C@@H](O)C[C@H](O)C3=C)CCC[C@]12C)C([2H])([2H])[2H] ?
Output line: 0.053

Input line: Proceed to [2H]C([2H])([2H])C(O)(CCC[C@@H](CC#CC(O)(C(F)(F)F)C(F)(F)F)[C@H]1CC[C@H]2/C(=C/C=C3/C[C@@H](O)C[C@H](O)C3=C)CCC[C@]12C)C([2H])([2H])[2H]
Output line: 0.062

Input line: Request: [2H]C([2H])([2H])C(O)(CCC[C@@H](C/C=C\C(O)(C(F)(F)F)C(F)(F)F)[C@H]1CC[C@H]2/C(=C/C=C3/C[C@@H](O)C[C@H](O)C3=C)CCC[C@]12C)C([2H])([2H])[2H]
Output line: 1.6

###

experiment: Antiproliferative activity against human MCF10CA1a after 3 days by [3H]thymidine uptake assay; type: functional
attribute_measured: pIC50
// field semantics: pIC50 = negative decimal log of concentration (mol/L)

Worked set:
structure_string=[2H]C([2H])([2H])C(O)(CCC[C@H](C/C=C\C(O)(C(F)(F)F)C(F)(F)F)[C@H]1CC[C@H]2/C(=C/C=C3/C[C@@H](O)C[C@H](O)C3=C)CCC[C@]12C)C([2H])([2H])[2H] attribute_measured=pIC50 obs_value=9.25
structure_string=[2H]C([2H])([2H])C(O)(CCC[C@@H](CC#CC(O)(C(F)(F)F)C(F)(F)F)[C@H]1CC[C@H]2/C(=C/C=C3/C[C@@H](O)C[C@H](F)C3=C)CCC[C@]12C)C([2H])([2H])[2H] attribute_measured=pIC50 obs_value=9.25
structure_string=[2H]C([2H])([2H])C(O)(CCC[C@H](C/C=C\C(O)(C(F)(F)F)C(F)(F)F)[C@H]1CC[C@H]2/C(=C/C=C3C[C@@H](O)C[C@H](O)C3)CCC[C@]12C)C([2H])([2H])[2H] attribute_measured=pIC50 obs_value=9.37
structure_string=[2H]C([2H])([2H])C(O)(CCC[C@H](C/C=C\C(O)(C(F)(F)F)C(F)(F)F)[C@H]1CC[C@H]2/C(=C/C=C3/C[C@@H](O)C[C@H](F)C3=C)CCC[C@]12C)C([2H])([2H])[2H] attribute_measured=pIC50 obs_value=8.16
structure_string=[2H]C([2H])([2H])C(O)(CCC[C@H](CC#CC(O)(C(F)(F)F)C(F)(F)F)[C@H]1CC[C@H]2/C(=C/C=C3/C[C@@H](O)C[C@H](F)C3=C)CCC[C@]12C)C([2H])([2H])[2H] attribute_measured=pIC50 obs_value=8.80

Note: attention shifts to another entry.
Input line: # query: pIC50 of entry [2H]C([2H])([2H])C(O)(CCC[C@H](CC#CC(O)(C(F)(F)F)C(F)(F)F)[C@H]1CC[C@H]2/C(=C/C=C3C[C@@H](O)C[C@H](O)C3)CCC[C@]12C)C([2H])([2H])[2H]
Output line: 9.72
